Molecular target: T1, human recombinant soluble ACE2 (human, UniProt Q9BYF1 18-740)
T1 construct: also called hrsACE2
T1 sequence (Q9BYF1 18-740 limits assumed): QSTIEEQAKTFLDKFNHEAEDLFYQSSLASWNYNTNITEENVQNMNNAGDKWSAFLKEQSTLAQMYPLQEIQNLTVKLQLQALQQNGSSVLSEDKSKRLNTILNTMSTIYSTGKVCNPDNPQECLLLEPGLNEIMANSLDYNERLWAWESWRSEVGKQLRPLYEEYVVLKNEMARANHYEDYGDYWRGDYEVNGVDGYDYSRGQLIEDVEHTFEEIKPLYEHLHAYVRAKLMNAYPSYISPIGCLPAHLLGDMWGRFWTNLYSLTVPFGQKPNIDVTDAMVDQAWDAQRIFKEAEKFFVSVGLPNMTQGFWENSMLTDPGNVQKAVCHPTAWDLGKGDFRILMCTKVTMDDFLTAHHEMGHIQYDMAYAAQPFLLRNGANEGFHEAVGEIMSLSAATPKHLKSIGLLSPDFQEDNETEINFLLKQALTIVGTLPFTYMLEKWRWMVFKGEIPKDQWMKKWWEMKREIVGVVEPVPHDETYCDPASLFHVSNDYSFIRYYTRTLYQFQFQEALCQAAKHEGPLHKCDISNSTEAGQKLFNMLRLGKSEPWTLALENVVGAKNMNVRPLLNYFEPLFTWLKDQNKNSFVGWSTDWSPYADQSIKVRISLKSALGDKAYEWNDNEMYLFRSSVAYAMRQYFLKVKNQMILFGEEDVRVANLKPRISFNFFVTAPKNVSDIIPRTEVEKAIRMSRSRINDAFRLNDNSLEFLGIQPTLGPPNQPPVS
Assay: ELISA screen
Hi all, reminder that labels come from Mean normalized OD, split as bottom range: < -0.004 OD; center range: ≥ -0.004 OD and < 0.005 OD; top range: ≥ 0.005 OD

Binder	Assigned category
Asgr2 CRD-mouse IgG2a-Fc fusion protein (Fc fusion) CCPVNWVEFGGSCYWFSRDGLTWAEADQYCQLENAHLLVINSREEQDFVVKHRSQFHIWIGLTDRDGSWKWVDGTDYRSNYRNWAFTQPDNWQGHEQGGGEDCAEILSDGHWNDNFCQQVNRWVCEKGGGSGGGSGGGS	top range
Clec4g CRD-mouse IgG2a-Fc fusion protein (Fc fusion) FQGSCYYFSETQATWDTAQSYCGGQGAHLVIVRGLNEQGFLSQHTRGRGYWLGLRAVRHLNKIQGYRWVDGASLNFSHWNSGEPNDSRGHEDCIMMLHSGLWNDAPCTNERDGWICGGGSGGGSGGGS	top range
Clec3a CRD-mouse IgG2a-Fc fusion protein (Fc fusion) VHKKCYLASEGLKHYHEANEDCISKGGTLVVPRNSDEINALRDYGKRSLPGVNDFWLGINDMVTEGKFLDVHGFAVSFLNWDRAQPSGGKRENCVLFSQSAQGKWSDEACRSSKRYICEGGGSGGGSGGGS	top range
Chodl CRD-mouse IgG2a-Fc fusion protein (Fc fusion) VKHPCYKMAYFHELSSRVSFQEARLACESEGGVLLSLENEAEQKLIESMLQNLTKPGTGISDGDFWIGLLRSGDGQTSGACPDLYQWSDGSSSQFRNWYTDEPSCGSEKCVVMYHQPTANPGLGGPYLYQWNDDRCNMKHNYICKGGGSGGGSGGGS	center range
Clec1a CRD-mouse IgG2a-Fc fusion protein (Fc fusion) YGDKCYQFYKESKNWQSCEYFCLADNATMLKISTQEELDFAMPQSYSEFFYSYWTGLSRNGSGKAWLWTDGTPYSFELFEIIIDPTNLRNRDCMTIFNGKAYSKDCKELRRCACEGGGSGGGSGGGS	bottom range
Clec4e CRD-mouse IgG2a-Fc fusion protein (Fc fusion) YQSSCYFFSTTTLTWSSSLKNCSDMGAHLVVIDTQEEQEFLFRTKPKRKEFYIGLTDQVVEGQWQWVDDTPFTESLSFWDAGEPNNIVLVEDCATIRDSSNSRKNWNDIPCFYSMPWICEGGGSGGGSGGGS	top range
Ly75_2 CRD-mouse IgG2a-Fc fusion protein (Fc fusion) NNGFCYLLANESSSWDAAHLKCKAFGADLISMHSLADVEVVVTKLHNGDVKKEIWTGLKNTNSPALFQWSDGTEVTLTYWNENEPSVPFNKTPNCVSYLGKLGQWKVQSCEKKLRYVCKGGGSGGGSGGGS	bottom range
Klre1 CRD-mouse IgG2a-Fc fusion protein (Fc fusion) FRCSCYFFSKEELIWRDSQRACLSLNSSLIRMNKEEMNFFSLKSFFWVGVYYNETRRQWLWEDHSVLPSGLFSKLEANMKNFCASYKSKEAYMEENCANKLTYICKGGGSGGGSGGGS	bottom range
Pla2r1_8 CRD-mouse IgG2a-Fc fusion protein (Fc fusion) FKGNCYSFSTVLDSRSFEDAHEFCKSEGSNLLAIRDAAENSFLLEELLAFGSSVQMVWLNAQFDNNNKTLRWFDGTPTEQSNWGLRKPDMDHLKPHPCVVLRIPEGIWHFTPCEDKKGFICKGGGSGGGSGGGS	bottom range
Atrn CRD-mouse IgG2a-Fc fusion protein (Fc fusion) VGNSCLKITTAKENYDNAKLSCRNHNAFLASLTSQKKVEFVLKQLRLMQSSQSMSKLTLTPWVGLRKINVSYWCWEDMSPFTNSLLQWMPSEPSDAGFCGILSEPSTRGLKAATCINPLNGSVCEGGGSGGGSGGGS	center range
Thbd CRD-mouse IgG2a-Fc fusion protein (Fc fusion) VEHECFALFQGPATFLDASQACQRLQGHLMTVRSSVAADVISLLLSQSSMDLGPWIGLQLPQGCDDPVHLGPLRGFQWVTGDNHTSYSRWARPNDQTAPLCGPLCVTVSTATEAAPGEPAWEEKPCETETQGFLCEFGGGSGGGSGGGS	center range
Mrc2_7 CRD-mouse IgG2a-Fc fusion protein (Fc fusion) YLNHTFRLLQKPLRWKDALLLCESRNASLAHVPDPYTQAFLTQAARGLQTPLWIGLASEEGSRRYSWLSEEPLNYVSWQDEEPQHSGGCAYVDVDGTWRTTSCDTKLQGAVCGGGSGGGSGGGS	center range
